# Test system: Mus musculus
# PROTOCOL_TEXT: Percentage inhibition of serum TNF-alpha in lipopolysaccharide injected mice at 10 mg/kg peroral dose
# Format: functional
# STUDY_CONDITIONS: route oral
PROPERTY_MEASURED: inhibition in vivo at 10 mg/kg (%)
Give the value in % but do not write % after it.

> print(dat)
                                   molecule  scale.unit  test.result
1  COc1ccc(C2CCN(C(C)=O)C2)cc1OC1CCCC1 (centres undefined)           %           23
2  COC(=O)N1CCC(c2ccc(OC)c(OC3CCCC3)c2)C1 (centres undefined)           %           46
3  COc1ccc(C2CCN(C(N)=O)C2)cc1OC1CCCC1 (centres undefined)           %           68

Here's the next entry for you.
Q: Could you tell me which inhibition in vivo at 10 mg/kg is on file for COc1ccc(C2CNC(=O)C2)cc1OC1CCCC1 (centres undefined) ?
Result: 68
